- System name: T1, EsCas13d, nuclease-dead (Eubacterium siraeum, UniProt B0MS50, R295A;H300A;R849A;H854A)
- T1 sequence: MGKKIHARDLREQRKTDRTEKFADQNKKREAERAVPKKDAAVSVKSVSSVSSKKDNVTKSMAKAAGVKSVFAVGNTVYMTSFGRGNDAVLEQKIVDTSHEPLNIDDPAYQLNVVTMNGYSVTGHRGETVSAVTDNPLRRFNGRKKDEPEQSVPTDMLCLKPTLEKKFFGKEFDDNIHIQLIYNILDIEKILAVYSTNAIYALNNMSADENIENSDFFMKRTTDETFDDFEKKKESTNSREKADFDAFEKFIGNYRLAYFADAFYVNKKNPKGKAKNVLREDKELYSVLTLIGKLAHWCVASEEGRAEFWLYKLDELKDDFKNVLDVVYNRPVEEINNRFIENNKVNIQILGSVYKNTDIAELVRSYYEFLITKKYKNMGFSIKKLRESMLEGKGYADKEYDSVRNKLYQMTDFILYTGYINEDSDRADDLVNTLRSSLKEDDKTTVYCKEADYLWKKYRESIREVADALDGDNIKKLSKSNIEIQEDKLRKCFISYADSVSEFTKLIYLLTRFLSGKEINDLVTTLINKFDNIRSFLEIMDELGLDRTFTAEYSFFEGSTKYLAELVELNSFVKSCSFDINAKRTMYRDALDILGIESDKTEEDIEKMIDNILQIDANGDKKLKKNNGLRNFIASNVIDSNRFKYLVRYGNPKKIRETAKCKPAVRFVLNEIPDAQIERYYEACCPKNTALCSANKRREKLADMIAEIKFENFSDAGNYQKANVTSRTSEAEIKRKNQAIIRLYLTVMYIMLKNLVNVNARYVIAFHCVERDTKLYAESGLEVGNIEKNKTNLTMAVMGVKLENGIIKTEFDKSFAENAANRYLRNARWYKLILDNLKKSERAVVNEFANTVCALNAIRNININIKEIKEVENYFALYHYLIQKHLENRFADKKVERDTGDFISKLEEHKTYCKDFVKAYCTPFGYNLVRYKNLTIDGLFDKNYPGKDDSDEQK
- Protocol summary: crRNA (strand 1, pre-loaded); Mg2+; 40 mM Tris-HCl pH 7.5, 150 mM NaCl, 6 mM MgCl2, 1 mM DTT, 0.1% Tween-20, 0.2 mg/ml BSA; 25 C; 10 min per concentration, then washed
- Test conditions: tags: His6-TwinStrep-SUMO cleaved; N-terminal SNAP kept (SNAP-Surface 488); label: 3' end held by stalled T7 RNA polymerase
Measure: Kd (nM)
Express it in nM; write the number only.

Example binders with recorded Kd:
# Binder, Quantity unit, Measured number
measured = [
    ("target 1 insA 3' of 12,insG 3' of 2 (mixed) RNA 1: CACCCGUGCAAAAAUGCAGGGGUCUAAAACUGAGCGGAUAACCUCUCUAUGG RNA 2: GGGAAUGGAUCCACAUCUACGAAUUCGUACCAUAGAGAGGAUUAUCCGCUCGACCGAGAUCGGAAGAGCACACGU", "nM", 30),
    ("target 1 insC 3' of 8,insC 3' of 3 (mixed) RNA 1: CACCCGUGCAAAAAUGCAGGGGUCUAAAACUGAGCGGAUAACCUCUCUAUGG RNA 2: GGGAAUGGAUCCACAUCUACGAAUUCGUACCAUAGAGAGGUUAUCCCGCUCCACCGAGAUCGGAAGAGCACACGU", "nM", 13.3),
]

Kd reported for this binder target 1 MT 5'PFS CAA 3'PFS ACC (mixed) RNA 1: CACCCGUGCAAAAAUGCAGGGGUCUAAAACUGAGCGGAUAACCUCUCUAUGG RNA 2: GGGAAUGGAUCCACAUCUACGAAUUCCAACCAUAGAGAGGUUAUCCGCUCAACCAGAUCGGAAGAGCACACGU : 14.8

Kd reported for this binder target 1 insA 3' of 7,insU 3' of 2 (mixed) RNA 1: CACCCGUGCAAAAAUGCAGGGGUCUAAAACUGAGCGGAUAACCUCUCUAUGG RNA 2: GGGAAUGGAUCCACAUCUACGAAUUCGUACCAUAGAGAGGUUAUCACGCUCUACCGAGAUCGGAAGAGCACACGU : 7.5

Kd reported for this binder target 1 insU 3' of 9,insU 3' of 9 (mixed) RNA 1: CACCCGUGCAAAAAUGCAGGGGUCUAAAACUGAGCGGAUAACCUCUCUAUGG RNA 2: GGGAAUGGAUCCACAUCUACGAAUUCGUACCAUAGAGAGGUUAUUUCCGCUCACCGAGAUCGGAAGAGCACACGU : 18.8

Kd reported for this binder target 1 insG 3' of 19,insU 3' of 4 (mixed) RNA 1: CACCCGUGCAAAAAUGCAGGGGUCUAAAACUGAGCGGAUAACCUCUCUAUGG RNA 2: GGGAAUGGAUCCACAUCUACGAAUUCGUACCAUGAGAGAGGUUAUCCGCUUCACCGAGAUCGGAAGAGCACACGU : 53
